Target: 5-HT2A (Homo sapiens (Human))
Experiment: Radioligand binding assay, [^3H]5-HT competition, 5-HT2A
Settings: [^3H]5-HT radioligand, membranes of HEK293 cells expressing recombinant 5-HT2A; Ki from IC50 by Cheng-Prusoff; read-out: 5-HT2A serotonin binding Ki value
outcome-measure: Ki

### Prompt So what's the measured Ki for this one? `Cc1ncnc(C)c1-c1cc(NC(=O)Cc2ccon2)ccc1OCCN1CCCC1`
### Response 35.7 nM

### Prompt So what's the measured Ki for this one? `Cc1ncnc(C)c1-c1cc(NC(=O)[C@@H]2C[C@@H]2F)ccc1O[C@@H]1CCCNC1`
### Response 12.8 nM

### Prompt So what's the measured Ki for this one? `Cc1nc(C)c(C(=O)Nc2ccc(OC[C@H]3CCCCN3)c(-c3c(C)ncnc3C)c2)s1`
### Response 87.2 nM

### Prompt So what's the measured Ki for this one? `Cc1ncnc(C)c1-c1cc(NC(=O)c2cnoc2)ccc1OCCN1CCCC1`
### Response 1510 nM

### Prompt So what's the measured Ki for this one? `Cc1ncnc(C)c1-c1cc(NC(=O)c2ccnn2C)ccc1OC[C@H]1CCCCN1`
### Response 10.7 nM

### Prompt So what's the measured Ki for this one? `Cc1cc(C(=O)Nc2ccc(OCCN3CCCC3)c(-c3c(C)ncnc3C)c2)co1`
### Response 13.2 nM

### Prompt So what's the measured Ki for this one? `COCCNCCOc1ccc(NC(=O)c2c(F)cnn2C)cc1-c1c(C)ncnc1C`
### Response 13.3 nM

### Prompt So what's the measured Ki for this one? `COc1cccc(C(=O)Nc2ccc(OC[C@H]3CCCCN3)c(-c3c(C)ncnc3C)c2)c1`
### Response 1.03 nM

### Prompt So what's the measured Ki for this one? `Cc1ncnc(C)c1-c1cc(NC(=O)C2(F)CC2)ccc1OC[C@H]1CCCCN1`
### Response 9.18 nM

### Prompt So what's the measured Ki for this one? Cc1ncnc(C)c1-c1cc(NC(=O)C2CCOC2)ccc1OCCN1CCCC1 (stereo not shown)
### Response 45.7 nM

### Prompt So what's the measured Ki for this one? `CO[C@H]1CCN(CCOc2ccc(NC(=O)C3CC3)cc2-c2c(C)ncnc2C)C1`
### Response 15.5 nM

### Prompt So what's the measured Ki for this one? `CCN(CCF)CCOc1ccc(NC(=O)C2CC2)cc1-c1c(C)ncnc1C`
### Response 96.5 nM

### Prompt So what's the measured Ki for this one? `COCCN(C)CCOc1ccc(NC(=O)c2ccccc2)cc1-c1c(C)ncnc1C`
### Response 63.3 nM

### Prompt So what's the measured Ki for this one? `Cc1ncnc(C)c1-c1cc(NC(=O)C2CC2)ccc1OCCN1CCN(C=O)CC1`
### Response 9.84 nM

### Prompt So what's the measured Ki for this one? `Cc1ncnc(C)c1-c1cc(NC(=O)CCCF)ccc1OCCN1CCCC1`
### Response 8.84 nM

### Prompt So what's the measured Ki for this one? `COCCNCCOc1ccc(NC(=O)C2(F)CC2)cc1-c1c(C)ncnc1C`
### Response 4.76 nM

### Prompt So what's the measured Ki for this one? `Cc1ncnc(C)c1-c1cc(NC(=O)C2CC2)ccc1OCCN(C)CCS(C)(=O)=O`
### Response 368 nM

### Prompt So what's the measured Ki for this one? `Cc1cnoc1C(=O)Nc1ccc(O[C@@H]2CCCNC2)c(-c2c(C)ncnc2C)c1`
### Response 91 nM

### Prompt So what's the measured Ki for this one? `Cc1ncnc(C)c1-c1cc(NC(=O)C2CC2)ccc1OCCN1CCC2(CC1)CNC2=O`
### Response 42.3 nM

### Prompt So what's the measured Ki for this one? `Cc1ncnc(C)c1-c1cc(NC(=O)c2cc(F)ccn2)ccc1OCCN1CCCC1`
### Response 4.8 nM

### Prompt So what's the measured Ki for this one? `Cc1ncnc(C)c1-c1cc(NC(=O)CN2CCn3cccc3C2)ccc1OCCN1CCCC1`
### Response 12.7 nM

### Prompt So what's the measured Ki for this one? Cc1ncnc(C)c1-c1cc(NC(=O)CC2CCOC2)ccc1OCCN1CCCC1 (stereo not shown)
### Response 13 nM

### Prompt So what's the measured Ki for this one? `Cc1ncnc(C)c1-c1cc(NC(=O)c2ccncc2F)ccc1OCCN1CCC1`
### Response 18.6 nM

### Prompt So what's the measured Ki for this one? `Cc1ncnc(C)c1-c1cc(NC(=O)c2ccc(F)cc2)ccc1OCCN1CCCC1`
### Response 2.43 nM

### Prompt So what's the measured Ki for this one? `CCCN(CCOC)CCOc1ccc(NC(=O)C2CC2)cc1-c1c(C)ncnc1C`
### Response 533 nM

### Prompt So what's the measured Ki for this one? `COc1cccc(C(=O)Nc2ccc(OCCN3CCCC3)c(-c3c(C)ncnc3C)c2)c1`
### Response 1.11 nM

### Prompt So what's the measured Ki for this one? `Cc1ncsc1CC(=O)Nc1ccc(OCCN2CCCC2)c(-c2c(C)ncnc2C)c1`
### Response 9.04 nM

### Prompt So what's the measured Ki for this one? `Cc1ncnc(C)c1-c1cc(NC(=O)c2ncoc2C)ccc1OCCN1CCCC1`
### Response 11.4 nM

### Prompt So what's the measured Ki for this one? `Cc1ncnc(C)c1-c1cc(NC(=O)C2CC2)ccc1OCCN1CCN(S(C)(=O)=O)CC1`
### Response 6.95 nM

### Prompt So what's the measured Ki for this one? `COc1cccc(CC(=O)Nc2ccc(OCCN3CCCC3)c(-c3c(C)ncnc3C)c2)c1`
### Response 3.92 nM

### Prompt So what's the measured Ki for this one? `CCCC(=O)Nc1ccc(OC2CNC2)c(-c2c(C)ncnc2C)c1`
### Response 8.59 nM

### Prompt So what's the measured Ki for this one? `Cc1ncnc(C)c1-c1cc(NC(=O)c2ccnn2C)ccc1O[C@@H]1CCCNC1`
### Response 40.3 nM

### Prompt So what's the measured Ki for this one? Cc1ncnc(C)c1-c1cc(NC(=O)C2CC2)ccc1OCCN(C)CC[S+](C)[O-] (stereo not shown)
### Response 232 nM

### Prompt So what's the measured Ki for this one? `CCN(CCO)CCOc1ccc(NC(=O)C2CC2)cc1-c1c(C)ncnc1C`
### Response 66.7 nM

====

Molecular target: 5-HT2B (Homo sapiens (Human), UniProt P41595)
Sequence (P41595 whole entry): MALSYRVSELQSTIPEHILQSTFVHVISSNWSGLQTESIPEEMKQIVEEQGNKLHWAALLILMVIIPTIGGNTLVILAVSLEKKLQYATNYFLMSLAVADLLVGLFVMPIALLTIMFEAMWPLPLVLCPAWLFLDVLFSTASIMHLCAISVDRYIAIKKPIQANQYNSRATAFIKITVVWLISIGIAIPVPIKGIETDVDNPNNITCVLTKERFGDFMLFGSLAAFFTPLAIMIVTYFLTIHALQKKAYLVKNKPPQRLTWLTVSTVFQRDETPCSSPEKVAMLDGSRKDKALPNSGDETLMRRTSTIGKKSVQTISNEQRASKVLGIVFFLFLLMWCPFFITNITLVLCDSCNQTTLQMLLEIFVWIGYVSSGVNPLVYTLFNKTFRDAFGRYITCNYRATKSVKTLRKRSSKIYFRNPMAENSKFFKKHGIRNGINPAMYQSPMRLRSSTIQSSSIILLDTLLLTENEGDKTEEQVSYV
Test: HTRF IP-One antagonist assay, 5-HT2B;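 note: clonal HEK293 line with low 5-HT2B expression (estimated 150-200 fmol/mg by radioligand binding), IP-One HTRF readout, 10-point curves from 10 µM in 5-fold steps, triplicate points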
Details: HEK293 cells stably expressing receptor, inositol phosphate accumulation, 80 nM 5-HT in Assay Buffer
outcome-measure: pIC50
Scale for pIC50: -log10 of concentration given in mol/L; no unit attached.

### Prompt So what's the measured pIC50 for this one? `Cc1ncnc(C)c1-c1cc(NC(=O)C2(F)CC2)ccc1OC1CNC1`
### Response 4.00

### Prompt So what's the measured pIC50 for this one? `CO[C@@H]1CCN(CCOc2ccc(NC(=O)C3CC3)cc2-c2c(C)ncnc2C)C1`
### Response 4.00

### Prompt So what's the measured pIC50 for this one? `Cc1ncnc(C)c1-c1cc(NC(=O)C2CC2)ccc1OCCN1CCCC1`
### Response 4.00

### Prompt So what's the measured pIC50 for this one? `Cc1ncnc(C)c1-c1cc(NC(=O)c2ccc(F)cc2)ccc1OCCN1CCC1`
### Response 6.09

====

Target: 5-HT2A (Homo sapiens (Human), UniProt P28223)
Sequence (P28223 whole entry): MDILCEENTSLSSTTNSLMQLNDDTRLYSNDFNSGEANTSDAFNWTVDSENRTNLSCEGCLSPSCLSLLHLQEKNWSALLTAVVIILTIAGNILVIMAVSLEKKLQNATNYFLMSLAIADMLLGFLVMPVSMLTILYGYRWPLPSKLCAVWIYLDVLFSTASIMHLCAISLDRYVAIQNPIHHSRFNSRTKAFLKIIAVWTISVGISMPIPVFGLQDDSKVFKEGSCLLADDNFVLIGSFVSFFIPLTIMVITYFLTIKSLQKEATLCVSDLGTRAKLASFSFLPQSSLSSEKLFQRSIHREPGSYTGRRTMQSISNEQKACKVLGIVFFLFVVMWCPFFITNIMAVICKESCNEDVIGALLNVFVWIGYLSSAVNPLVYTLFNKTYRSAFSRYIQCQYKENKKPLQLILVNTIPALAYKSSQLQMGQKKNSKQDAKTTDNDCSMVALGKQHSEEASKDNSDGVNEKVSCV
Assay: HTRF IP-One antagonist assay, 5-HT2A;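 note: clonal line with low receptor density (about 50–70 fmol/mg), 10-point dose-response from 10 µM in 5-fold steps, HTRF detection after 1 hr, triplicate points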
Settings: HEK293 cells stably expressing receptor, inositol phosphate accumulation, 80 nM 5-HT in Assay Buffer
outcome-measure: IC50 (nM)
State just the number; it will be interpreted in nM.

### Prompt So what's the measured IC50 for this one? `Cc1ncnc(C)c1-c1cc(NC(=O)C2CC2)ccc1OCCN1CCCC1`
### Response 9.66

### Prompt So what's the measured IC50 for this one? `Cc1ncnc(C)c1-c1cc(NC(=O)C2(F)CCC2)ccc1OC[C@H]1CCCCN1`
### Response 11.8

### Prompt So what's the measured IC50 for this one? `CCC[C@@H](F)C(=O)Nc1ccc(OC[C@H]2CCCCN2)c(-c2c(C)ncnc2C)c1`
### Response 12.1

### Prompt So what's the measured IC50 for this one? `Cc1ncnc(C)c1-c1cc(NC(=O)c2ncsc2C)ccc1OC[C@H]1CCCCN1`
### Response 43.2

### Prompt So what's the measured IC50 for this one? `Cc1ncnc(C)c1-c1cc(NC(=O)Cc2cccc(F)c2)ccc1OCCN1CCCC1`
### Response 6.32

### Prompt So what's the measured IC50 for this one? `Cc1ncnc(C)c1-c1cc(NC(=O)c2c(F)cnn2C)ccc1OCCN1CCCC1`
### Response 7.36

### Prompt So what's the measured IC50 for this one? `Cc1ncnc(C)c1-c1cc(NC(=O)C2CC2)ccc1OC1CNC1`
### Response 50.5

### Prompt So what's the measured IC50 for this one? `Cc1ncsc1C(=O)Nc1ccc(OCCN2CCC2)c(-c2c(C)ncnc2C)c1`
### Response 6.14

### Prompt So what's the measured IC50 for this one? `Cc1ncnc(C)c1-c1cc(NC(=O)c2ccccc2)ccc1OCCN1CCC1`
### Response 14.7

### Prompt So what's the measured IC50 for this one? `Cc1ncnc(C)c1-c1cc(NC(=O)Cn2cccc2)ccc1OCCN1CCCC1`
### Response 14.8

### Prompt So what's the measured IC50 for this one? `Cc1ncnc(C)c1-c1cc(NC(=O)c2ccccc2F)ccc1OCCN1CCC1`
### Response 14.3

### Prompt So what's the measured IC50 for this one? `Cc1ncsc1CC(=O)Nc1ccc(OCCN2CCC2)c(-c2c(C)ncnc2C)c1`
### Response 9.84

### Prompt So what's the measured IC50 for this one? `Cc1ncnc(C)c1-c1cc(NC(=O)Cc2cncs2)ccc1OCCN1CCCC1`
### Response 10.6

### Prompt So what's the measured IC50 for this one? `COC1CCN(CCOc2ccc(NC(=O)C3CC3)cc2-c2c(C)ncnc2C)CC1`
### Response 7.03

### Prompt So what's the measured IC50 for this one? `COc1ccc(CC(=O)Nc2ccc(OCCN3CCCC3)c(-c3c(C)ncnc3C)c2)cc1`
### Response 3.07

### Prompt So what's the measured IC50 for this one? `Cc1ncnc(C)c1-c1cc(NC(=O)c2cccc(C#N)c2)ccc1OCCN1CCC1`
### Response 8.54

### Prompt So what's the measured IC50 for this one? `Cc1ncnc(C)c1-c1cc(NC(=O)c2ccc(F)cc2)ccc1OCCN1CCCC1`
### Response 7.8

### Prompt So what's the measured IC50 for this one? `Cc1ncnc(C)c1-c1cc(NC(=O)CCc2nccs2)ccc1OCCN1CCCC1`
### Response 56

### Prompt So what's the measured IC50 for this one? `Cc1ncnc(C)c1-c1cc(NC(=O)C2(F)CC2)ccc1OC[C@H]1CCCCN1`
### Response 16.4

### Prompt So what's the measured IC50 for this one? `Cc1ncnc(C)c1-c1cc(NC(=O)C2CC2)ccc1OCCN1CCC1`
### Response 10.2

### Prompt So what's the measured IC50 for this one? `Cc1ncnc(C)c1-c1cc(NC(=O)Cc2cncc(F)c2)ccc1OCCN1CCC1`
### Response 15.3

### Prompt So what's the measured IC50 for this one? `Cc1ncsc1C(=O)Nc1ccc(OCCN2CCCC2)c(-c2c(C)ncnc2C)c1`
### Response 5.16

### Prompt So what's the measured IC50 for this one? `Cc1ncnc(C)c1-c1cc(NC(=O)c2cccn2C)ccc1OC[C@H]1CCCCN1`
### Response 27.2

### Prompt So what's the measured IC50 for this one? `Cc1ncnc(C)c1-c1cc(NC(=O)Cc2cccc(F)c2)ccc1OCCN1CCC1`
### Response 2.38

### Prompt So what's the measured IC50 for this one? `Cc1ccccc1C(=O)Nc1ccc(OCCN2CCC2)c(-c2c(C)ncnc2C)c1`
### Response 25.7

### Prompt So what's the measured IC50 for this one? `Cc1ncnc(C)c1-c1cc(NC(=O)c2ccccc2)ccc1OCCN1CCCC1`
### Response 6.1

### Prompt So what's the measured IC50 for this one? `Cc1ncnc(C)c1-c1cc(NC(=O)Cc2ccno2)ccc1OCCN1CCCC1`
### Response 35.9

### Prompt So what's the measured IC50 for this one? `COc1ccc(C(=O)Nc2ccc(OCCN3CCC3)c(-c3c(C)ncnc3C)c2)cc1`
### Response 16.8

### Prompt So what's the measured IC50 for this one? `Cc1ncnc(C)c1-c1cc(NC(=O)c2ccnn2C)ccc1OCCN1CCC1`
### Response 8.86

### Prompt So what's the measured IC50 for this one? `Cc1ncnc(C)c1-c1cc(NC(=O)C2(F)CC2)ccc1OCCN1CCCC1`
### Response 8.55

### Prompt So what's the measured IC50 for this one? `Cc1ncnc(C)c1-c1cc(NC(=O)c2cccn2C)ccc1OCCN1CCCC1`
### Response 11.7

### Prompt So what's the measured IC50 for this one? `Cc1ncnc(C)c1-c1cc(NC(=O)CCc2cncs2)ccc1OCCN1CCCC1`
### Response 33.5

### Prompt So what's the measured IC50 for this one? CCOC1CC1C(=O)Nc1ccc(OCCN2CCCC2)c(-c2c(C)ncnc2C)c1 (stereo not shown)
### Response 9.75

### Prompt So what's the measured IC50 for this one? `Cc1ncnc(C)c1-c1cc(NC(=O)C2(F)CC2)ccc1OC1CNC1`
### Response 33.8
